Measured Kd of individual entries
biological target: von Willebrand factor full length (Homo sapiens, UniProt P04275 SEQ:764-2813); assay: filter; details: tags: Calbiochem 681300
Provide the reading as a plain figure in nM.

In the examples that follow, each entry is paired with its recorded Kd.
State the recorded Kd for this entry: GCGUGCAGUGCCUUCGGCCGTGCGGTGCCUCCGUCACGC (mixed, 2'-OMe at 1-4,8-18,20,22,27,28,30,33,34,36-39, rest deoxy; PS between 18 and 19; 3'-idT) [ARC1366] 15.5

State the recorded Kd for this entry: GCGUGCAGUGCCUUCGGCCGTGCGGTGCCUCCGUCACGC (mixed, 2'-OMe at 1-4,8-18,20,22,27,28,30,33,34,36-39, rest deoxy; PS between 5 and 6; 3'-idT) [ARC1363] 12.7

Query binder follows.
State the recorded Kd for this entry: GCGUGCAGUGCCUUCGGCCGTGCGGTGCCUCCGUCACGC (mixed, 2'-OMe at 1-4,8-18,20,22,27,28,30,33,34,36-39, rest deoxy; PS between 6 and 7; 3'-idT) [ARC1364] 8.2
